Tested on: Inhibin beta A chain (activin A)
Test: INHBA (activin A) binders on microarrays, primary screen, biochemical, small-molecule microarray, 635 nm fluorescence scan (AID 1107);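 note: mouse activin A protein probed at 4.33 µg/mL on printed slides; score merges bound-protein fluorescence near 667 nm with spot signal-to-noise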
Conditions: small-molecule microarray binding, higher = more signal
observed_property: composite z-score
API doc: respond with a numeric literal and nothing else, no unit.

Q: Using the record for `COC(=O)[C@@]1(Cc2ccc(F)cc2)[C@@H]2C(=CC(=O)[C@H]2CC(=O)C(=O)N2CCCC2)CN1C(=O)c1ccccc1` , report its composite z-score.
A: 1.19

Q: So what's the measured composite z-score for this one? `CC(C)C(=C=CC[C@H](O)c1cccc(OCCO)c1)C[C@H](O)c1ccccn1`
A: 0.409

Q: Requested field: composite z-score. Item: CC(CO)N1C(=O)[C@@H]2[C@H]3C(=O)OCC=C[C@H]3OC23C=CCN(c2ccc4ccccc4c2)C(=O)[C@@H]13 (some centres not stated)
A: -1.18

Q: Quick one: composite z-score for `O=C1N(Cc2ccccc2)c2ccccc2C[C@@]12N=C(c1ccc(OCCCO)cc1)O[C@H]2c1ccccc1` ?
A: 0.295

Q: Look at this molecule and give its reported composite z-score. CC(C)C[C@H]1NC(=O)CNC(=O)[C@@]23C(=O)N[C@@H](Cc4ccccc4)C2[C@H](C)[C@@]2(C)O[C@H]2C3/C=C/C/C=C\CNC1=O (some centres not stated)
A: 1.48

Q: Give its composite z-score value. Item: `COCCOC(=O)N1C(=O)[C@@]2(c3cc(C#CCCO)ccc31)[C@H](C(=O)N1CCN(c3ncccn3)CC1)[C@H]1C(=O)O[C@H](c3ccccc3)[C@H](c3ccccc3)N1[C@@H]2c1ccc(OCCO)cc1`
A: 0.356

Q: Value lookup for composite z-score; key = CN1C(=O)C2C(C1=O)C1C=C(CCCO)C2C(C2CC2)N1C (configuration not stated)
A: 0.411

###

Test system: Neuregulin-1 EGF-like domain
Assay: binders of neuregulin-1 EGF-like domain, primary screen, biochemical, small-molecule microarray, 635 nm fluorescence (AID 1081);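 note: binding of the protein to compounds printed on small-molecule microarray slides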
Details: small-molecule microarray binding, higher = more signal
Collected composite z-score values appear next to each entry.
# respond with the number and nothing more

Q: composite z-score lookup needed for CC(C)N1CC=CC23O[C@@H]4/C=C\CCCOC(=O)C4[C@H]2C(=O)N(C(C)CO)[C@@H]3C1=O (some centres undefined) , thanks.
A: 0.522

Q: So what's the measured composite z-score for this one? `COC(=O)Cn1c(C(=O)N(C)C)cc2c1C[C@H]1CN(C(=O)c3ccccc3)[C@@](Cc3ccccc3)(C(=O)OC)[C@@H]21`
A: 0.641

Q: Can you share its composite z-score? I mean this compound: `O=C(NCCN1CCOCC1)[C@@H]1c2ccccc2C(=O)N(CC23CC4CC(CC(C4)C2)C3)[C@H]1c1ccc(CO)cc1`
A: 1.39

Q: Query: composite z-score; subject: `C[C@@]1([C@@H](NS(=O)(=O)c2cccc3cccnc23)c2ccc(-c3ccccc3)cc2)C[C@H]1C1CCCCC1`
A: 0.809

###

Assay: COS7 lysate on small-molecule microarray, probe aHis, 635 nm (AID 1123);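 note: z-score combines 667nm fluorescence intensity with signal-to-noise per printed compound spot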
Conditions: COS7 cell lysate, fluorescence, higher = more signal
Entries get a class label from measured composite z-score. See ranges: Low = under 0.2, Mid = from 0.2 up to 2, High = 2 and over

compound: C[C@H]1C2[C@H](Cc3ccccc3)NC(=O)[C@]23C(=O)N[C@@H](Cc2ccccc2)C(=O)N2CCC[C@H]2C(=O)NC/C=C/CC/C=C/C3[C@@H]2O[C@]12C (some centres undefined)
class_assignment: Mid
//
compound: CCOC(=O)C1=C[C@@H](C(C)(C)C)N(S(=O)(=O)c2ccc(C)cc2)[C@H]1c1ccc(OC)cc1
class_assignment: Mid
//
compound: C=CC[C@H](OC(=O)Nc1ccc(SC)cc1)c1ccc(O)c(F)c1
class_assignment: Mid
//
compound: O=C(NCC(F)(F)F)[C@@H]1c2ccccc2C(=O)N(Cc2cc(C(F)(F)F)cc(C(F)(F)F)c2)[C@H]1c1ccc(CO)cc1
class_assignment: Mid
//
compound: COCCOC(=O)N1C(=O)[C@@]2(c3cc(C#CCNC(N)=O)ccc31)[C@H](C(=O)N1CCN(c3ncccn3)CC1)[C@H]1C(=O)O[C@H](c3ccccc3)[C@H](c3ccccc3)N1[C@@H]2c1ccc(O)cc1
class_assignment: Low

Q: Hi, small favor: classify `COCCOC(=O)N1C(=O)[C@@]2(c3ccccc31)[C@H](C(=O)Nc1nc3ccccc3s1)[C@H]1C(=O)O[C@H](c3ccccc3)[C@H](c3ccccc3)N1[C@@H]2c1ccccc1OCCO` by its composite z-score when you get a moment.
A: Mid

Q: # bin label for `C=CCOC(=O)[C@@H]1[C@H]2C(=O)O[C@H](c3ccccc3)[C@H](c3ccccc3)N2[C@H](c2ccc(OCCOC(=O)[C@@H]3C[C@@H]4C(=O)N[C@@H](CC(C)C)C(=O)N4[C@@H]3c3ccc(O)cc3)cc2)[C@@]12C(=O)Nc1ccc(I)cc12`
A: Mid

Q: Pick a category. Item: `CN(C)CCCCNC(=O)[C@H]1C[C@H]2C(=O)N[C@@H](CCCCN(C)C)C(=O)N2[C@H]1c1ccc(O)cc1`
A: Low

Q: Band of `COCCOC(=O)N1C(=O)[C@@]2(c3cc(C#CCC(C(=O)OC)C(=O)OC)ccc31)[C@H](c1ccc(O)cc1)N1[C@H](c3ccccc3)[C@H](c3ccccc3)OC(=O)[C@H]1[C@@H]2C(=O)N1CCc2cc(OC)c(OC)cc2C1` ?
A: Mid

Q: // return the class label for `COc1ccc(CCNC(=O)[C@@H]2c3ccccc3C(=O)N(Cc3cc(F)cc(C(F)(F)F)c3)[C@H]2c2ccc(CO)cc2)cc1`
A: High

Q: Which category does the recorded composite z-score put `CCCCCCc1nc(-c2ccc(OC)nc2)c(C)c2c1[Si](C(C)C)(C(C)C)OC2` in?
A: Low

Q: Lab log: CCCC1(C(=O)OC)C=C2C(=C(C(C)C)C(=O)C2C)CN1 (centres undefined) — assign composite z-score category
A: Mid

Q: Sort `COc1ccc([Si](C)(C)[C@H]2[C@H](CC(=O)N(CCO)Cc3ccccc3)O[C@@]3(C(=O)N(Cc4ccc(N5C(=O)c6cccc7cccc5c67)cc4)c4ccccc43)[C@@H]2C)cc1` into one of the categories.
A: Mid
